Origin of the recorded values: patent US20230416268A1

Target: Recombinant human 17β-HSD13 (Homo sapiens (Human), UniProt Q7Z5P4)
Sequence (Q7Z5P4 20-300): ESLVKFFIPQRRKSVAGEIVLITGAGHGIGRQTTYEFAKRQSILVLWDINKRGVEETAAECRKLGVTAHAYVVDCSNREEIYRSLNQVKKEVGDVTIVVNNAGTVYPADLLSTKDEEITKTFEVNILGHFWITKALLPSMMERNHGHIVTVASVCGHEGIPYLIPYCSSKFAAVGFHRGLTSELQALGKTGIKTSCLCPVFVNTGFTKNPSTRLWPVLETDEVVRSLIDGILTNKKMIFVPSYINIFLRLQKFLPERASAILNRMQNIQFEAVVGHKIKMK
Experiment: 17β-HSD13 rapid-fire mass spectrometry assay (RF/MS assay)
Settings: HSD17B13 80 nM, LTB4 10 μM, NAD+ 0.5 mM, RT 3 h, RF/MS readout
Catalogue of compounds with associated IC50

Guide cases for IC50, answers given:
>  <compound-structure>
C=CCn1c(-c2ccc(OC)cc2C2CC2)nc2sc3c(O)cccc3c2c1=O

>  <target-entity>
Recombinant human 17β-HSD13 (Homo sapiens (Human), UniProt Q7Z5P4)

>  <IC50>
< 100 nM

$$$$
>  <compound-structure>
COc1ccc(-c2nc3sc4c(O)cccc4c3c(=O)n2C2CC2)c(C2CC2)c1

>  <target-entity>
Recombinant human 17β-HSD13 (Homo sapiens (Human), UniProt Q7Z5P4)

>  <IC50>
100 to 1000 nM

$$$$
>  <compound-structure>
O=c1c2c(nc(-c3ccc(F)cc3C3CC3)n1CCn1cnnn1)sc1c(O)cccc12

>  <target-entity>
Recombinant human 17β-HSD13 (Homo sapiens (Human), UniProt Q7Z5P4)

>  <IC50>
< 100 nM

$$$$
>  <compound-structure>
COc1ccc(-c2nc3sc4c(O)cccc4c3c(=O)n2C/C=C/C(=O)N(C)C)c(C2CC2)c1

>  <target-entity>
Recombinant human 17β-HSD13 (Homo sapiens (Human), UniProt Q7Z5P4)

>  <IC50>
< 100 nM

$$$$
>  <compound-structure>
O=c1c2c(nc(-c3ccc(F)cc3C3CC3)n1Cc1ccno1)sc1c(O)cccc12

>  <target-entity>
Recombinant human 17β-HSD13 (Homo sapiens (Human), UniProt Q7Z5P4)

>  <IC50>
< 100 nM

$$$$

Challenge: So what's the measured IC50 for this one? COc1ccc(-c2nc3sc4c(O)cccc4c3c(=O)n2CCNCc2cnc(OC)nc2)c(C2CC2)c1
Response given: < 100 nM

Challenge: So what's the measured IC50 for this one? COc1ccc(-c2nc3sc4c(O)cccc4c3c(=O)n2CCN2CCC(O)CC2)c(C2CC2)c1
Response given: < 100 nM

Challenge: So what's the measured IC50 for this one? COc1ccc(-c2nc3sc4c(O)cccc4c3c(=O)n2CCOC(=O)N2CCOCC2)c(C2CC2)c1
Response given: < 100 nM

Challenge: So what's the measured IC50 for this one? COc1ccc(-c2nc3sc4c(O)cccc4c3c(=O)n2CCN2CCOCC2)c(C2CC2)c1
Response given: < 100 nM

Challenge: So what's the measured IC50 for this one? O=c1c2c(nc(-c3ccc(F)cc3C3CC3)n1Cc1cnco1)sc1c(O)cccc12
Response given: < 100 nM

Challenge: So what's the measured IC50 for this one? Cc1cc(Cn2c(-c3ccc(F)cc3C3CC3)nc3sc4c(O)cccc4c3c2=O)on1
Response given: 1000 to 10000 nM

Challenge: So what's the measured IC50 for this one? COc1ccc(-c2nc3sc4c(O)cccc4c3c(=O)n2Cc2cnc(C)o2)c(C2CC2)c1
Response given: < 100 nM

Challenge: So what's the measured IC50 for this one? O=c1c2c(nc(-c3ccc(F)cc3C3CC3)n1CCn1cnnc1)sc1c(O)cccc12
Response given: 100 to 1000 nM

Challenge: So what's the measured IC50 for this one? COc1ccc(-c2nc3sc4c(O)cccc4c3c(=O)n2Cc2ccccc2)c(C2CC2)c1
Response given: < 100 nM

Challenge: So what's the measured IC50 for this one? COc1ccc(-c2nc3sc4c(O)cccc4c3c(=O)n2Cc2nnn(C)n2)c(C2CC2)c1
Response given: < 100 nM

Challenge: So what's the measured IC50 for this one? CCc1ncc(Cn2c(-c3ccc(OC)cc3C3CC3)nc3sc4c(O)cccc4c3c2=O)s1
Response given: 100 to 1000 nM

Challenge: So what's the measured IC50 for this one? COc1ccc(-c2nc3sc4c(O)cccc4c3c(=O)n2CCN2CCNCC2)c(C2CC2)c1
Response given: < 100 nM
